# System Name: Mushroom tyrosinase (Agaricus bisporus, UniProt O42713+Q00024+C7FF04+C7FF05)
# Measurement Notes: Inhibition of mushroom Tyrosinase
# Assay type: protein assay
Mark YES for IC50 under 10 µM, NO if at or over.

The examples below pair each entry with its known result.
COc1ccc(C(=O)OCc2cc(=O)c(O)co2)cc1 = YES
Cc1c(O)c(=O)ccn1C = NO
CC(C)[C@@H](NC(=O)[C@@H](N)Cn1ccc(=O)c(O)c1)C(=O)O = NO
Cc1c(C)c2c(c(C)c1O)CCC(C)(C(=O)OCc1cc(=O)c(O)co1)O2 (stereo unspecified) = YES
O=c1cc(CSCCCCSCc2cc(=O)c(O)co2)occ1O = YES

**Q:** Criterion: IC50 strictly below 10 µM. Is it met by O=C(N[C@@H](Cc1ccccc1)C(=O)OCc1cc(=O)c(O)c[nH]1)OCc1ccccc1 ?
**A:** YES

**Q:** Criterion: IC50 strictly below 10 µM. Is it met by O=C(/C=C/c1ccc2c(c1)OCO2)OCc1cc(=O)c(O)co1 ?
**A:** YES

**Q:** Criterion: IC50 strictly below 10 µM. Is it met by CCCCCCn1cc(O)c(=O)cc1/C=C/c1cc(O)cc(O)c1 ?
**A:** NO

**Q:** Criterion: IC50 strictly below 10 µM. Is it met by CCCCCCCCn1cc(O)c(=O)cc1/C=N/OCC ?
**A:** YES

**Q:** Criterion: IC50 strictly below 10 µM. Is it met by O=C(CCNC(=O)OCc1cc(=O)c(O)co1)OCc1cc(=O)c(O)co1 ?
**A:** YES

**Q:** Criterion: IC50 strictly below 10 µM. Is it met by O=Cc1ccc(OCc2cc(=O)c(O)co2)cc1F ?
**A:** YES

**Q:** Criterion: IC50 strictly below 10 µM. Is it met by CCOC(=O)/C=C/c1cc(=O)c(O)co1 ?
**A:** NO

**Q:** Criterion: IC50 strictly below 10 µM. Is it met by CCCCCCCCn1cc(O)c(=O)cc1C=O ?
**A:** YES

**Q:** Criterion: IC50 strictly below 10 µM. Is it met by CCCCCCCCn1cc(O)c(=O)cc1COC(=O)[C@@H](N)Cc1ccccc1 ?
**A:** YES

**Q:** Criterion: IC50 strictly below 10 µM. Is it met by O=c1cc(CSC2CCCCC2)occ1O ?
**A:** YES

This collection of values is drawn from ChEMBL document CHEMBL5634078.
